Tested on: A549/ATCC NSCLC
Assay: NCI-60 one-dose screen, 48 h (100 = growth as untreated, 0 = no growth, -100 = all killed)
Details: 10 µM unless noted
Compounds without any hit were thinned out: in the full panel of roughly 83,000, 20% have a hit.
Outcome Measure: growth (%)
# number only, unit % dropped from output

Known growth results, listed for orientation:
O=C(/C=C/c1cn(-c2ccccc2)nc1-c1ccccc1)CCC(=O)NO	91.5
CC(C)(C)c1ccc(S(=O)(=O)Oc2ccc(-c3sc4cc(OS(=O)(=O)c5ccc(C(C)(C)C)cc5)ccc4c3C(=O)c3ccc(OCCN4CCCCC4)cc3)cc2)cc1	87.4

From here, focus on the item given below.
Challenge: Provide growth, tested on A549/ATCC NSCLC, for COc1ccc(C(c2cc(OC)c(OC)c(OC)c2)N2CCCCC2)cc1 (stereo not drawn) .
Response given: 49.1

---

Test system: SK-OV-3 ovarian
Assay: NCI-60 one-dose screen, 48 h (100 = growth as untreated, 0 = no growth, -100 = all killed)
Conditions: 10 µM unless noted
Compounds without any hit were thinned out: in the full panel of roughly 83,000, 20% have a hit.
Outcome Measure: growth (%)
# number only, unit % dropped from output

Known growth results, listed for orientation:
O=C(Nc1cc(Cl)ccc1O)c1ccccc1Nc1ccnc(C(F)(F)F)c1	49.9
CCN1C2CCC1/C(=C\c1ccccc1)C(=O)/C2=C/c1ccccc1	78.5
COCCOC(C)C(/C=N/NC(N)=S)=N/NC(N)=S (centres undefined)	93.3
N#Cc1ccc(O)c(C2=NCC(c3ccc(-c4ccccc4)cc3)O2)c1 (centres undefined)	3.28
CCOC(=O)C1=C(c2ccccc2)N=C2N(c3ccccc3)N=C(C(C)=O)N2C1c1ccc(F)cc1 (centres undefined)	107

Challenge: Provide growth, tested on SK-OV-3 ovarian, for COc1ccc(/C=N/Nc2c3ccccc3nc3ccccc23)cc1 .
Response given: 90.8

Challenge: Provide growth, tested on SK-OV-3 ovarian, for c1ccc(-c2c(-c3ccccc3)[n+](Cc3ccc4ccccc4c3)cn2Cc2ccc3ccccc3c2)cc1 .
Response given: -97.9

Challenge: Provide growth, tested on SK-OV-3 ovarian, for N=C(N)c1ccc(-c2ccc(-c3ccccc3)o2)o1 .
Response given: 45.9

Challenge: Provide growth, tested on SK-OV-3 ovarian, for Nc1ncccc1O .
Response given: 107

Challenge: Provide growth, tested on SK-OV-3 ovarian, for O=C1c2cccnc2C(=O)c2c1c(C(=O)OCCc1ccccn1)c1ccccn21 .
Response given: -66.5

Challenge: Provide growth, tested on SK-OV-3 ovarian, for COC12C=C/C(=C(/C(=O)OCCSc3ccnn3C)C(=O)CCCCCCCCC3(OC)C=C/C(=C(/C(=O)OCCSc4ccnn4C)C(=O)CCCCCCCC1)O3)O2 .
Response given: 75.1

Challenge: Provide growth, tested on SK-OV-3 ovarian, for Clc1cccc(C2Cc3cnccc3-c3[nH]c4ccncc4c32)c1 (centres undefined) .
Response given: 50.9

Challenge: Provide growth, tested on SK-OV-3 ovarian, for Cc1c2ncccc2nc2[nH]c3ccc(OCCN(C)C)cc3c12 .
Response given: 38.1

---

Readings of growth for the listed molecules
System: SNB-19 CNS
Assay: NCI-60 one-dose screen, 48 h (100 = growth as untreated, 0 = no growth, -100 = all killed)
Conditions: 10 µM unless noted
Compounds without any hit were thinned out: in the full panel of roughly 83,000, 20% have a hit.
# number only, unit % dropped from output

Known growth results, listed for orientation:
CCCCCCCCn1ccc2cc(NC(=O)CN3CCN(c4cc(C)nc(Cl)n4)CC3)ccc21	88.9
CN(C)c1ccc(/C=N\NC(=O)c2ccc3nc(-c4ccc(Cl)cc4)[nH]c3c2)cc1	60.4

Challenge: Provide growth, tested on SNB-19 CNS, for CC1=C(Cl)C(=O)c2cc(C)ccc2C1=O .
Response given: 106

Values from PubChem BioAssay (NCI)
